Reported IC50 is given for each of the following compounds.
Test system: Fibroblast
Assay: Cytotoxicity against human skin fibroblast cells assessed as reduction in cell viability after 48 hrs
Assay type: cell-based

| Compound | Study system | IC50 |
| --- | --- | --- |
| O=[N+]([O-])c1ccc(CN2CCC(n3cc(CC(OCc4cc(-c5ccccc5)no4)c4ccc(Br)cc4)nn3)CC2)cc1 (centres undefined) | Fibroblast | > 25 µM |
| O=[N+]([O-])c1ccc(CN2CCC(n3cc(CC(OCc4cc(-c5cccc(F)c5)no4)c4ccc(Br)cc4)nn3)CC2)cc1 (centres undefined) | Fibroblast | 10 µM |
| O=[N+]([O-])c1ccc(CN2CCC(n3cc(CC(OCc4cc(-c5ccc(F)cc5)no4)c4ccc(Br)cc4)nn3)CC2)cc1 (centres undefined) | Fibroblast | > 25 µM |
| COc1cccc(-c2cc(COC(Cc3cn(C4CCN(Cc5ccc([N+](=O)[O-])cc5)CC4)nn3)c3ccc(Br)cc3)on2)c1 (centres undefined) | Fibroblast | > 25 µM |
| CC[C@H](CO)Nc1nc(NCc2ccccc2)c2ncn(C(C)C)c2n1 | Fibroblast | 15 µM |
| N#Cc1ccc(-c2cc(COC(Cc3cn(C4CCN(Cc5ccc([N+](=O)[O-])cc5)CC4)nn3)c3ccc(Br)cc3)on2)cc1 (centres undefined) | Fibroblast | > 25 µM |
| COc1ccccc1-c1cc(COC(Cc2cn(C3CCN(Cc4ccc([N+](=O)[O-])cc4)CC3)nn2)c2ccc(Br)cc2)on1 (centres undefined) | Fibroblast | > 25 µM |
| COc1cccc2c1C(=O)c1c(O)c3c(c(O)c1C2=O)C[C@@](O)(C(=O)CO)C[C@@H]3O[C@H]1C[C@H](N)[C@H](O)[C@H](C)O1 | Fibroblast | 0.02 µM |
| O=[N+]([O-])c1ccc(CN2CCC(n3cc(CC(OCc4cc(-c5ccccc5Br)no4)c4ccc(Br)cc4)nn3)CC2)cc1 (centres undefined) | Fibroblast | > 25 µM |
| COc1ccc(-c2cc(COC(Cc3cn(C4CCN(Cc5ccc([N+](=O)[O-])cc5)CC4)nn3)c3ccc(Br)cc3)on2)cc1 (centres undefined) | Fibroblast | > 25 µM |
| O=[N+]([O-])c1ccc(CN2CCC(n3cc(CC(OCc4cc(-c5ccc(Br)cc5)no4)c4ccc(Br)cc4)nn3)CC2)cc1 (centres undefined) | Fibroblast | > 25 µM |
| N#Cc1cccc(-c2cc(COC(Cc3cn(C4CCN(Cc5ccc([N+](=O)[O-])cc5)CC4)nn3)c3ccc(Br)cc3)on2)c1 (centres undefined) | Fibroblast | > 25 µM |
| O=[N+]([O-])c1ccc(CN2CCC(n3cc(CC(OCc4cc(-c5cccc(Br)c5)no4)c4ccc(Br)cc4)nn3)CC2)cc1 (centres undefined) | Fibroblast | > 25 µM |
| O=[N+]([O-])c1ccc(CN2CCC(n3cc(CC(OCc4cc(-c5ccccc5F)no4)c4ccc(Br)cc4)nn3)CC2)cc1 (centres undefined) | Fibroblast | > 25 µM |
